From: ChEMBL document CHEMBL2057112

- Test system: Human immunodeficiency virus 1
- EXPERIMENT_SUMMARY: Antiviral activity against Human immunodeficiency virus 1 HXB2 expressing protease M8 mutant infected in human MT4 cells after 5 days by MTT assay
- Type: functional, organism-based
- EXPERIMENTAL_SETUP: Human immunodeficiency virus 1, HXB2, MT4, 120 h
pIC50: −log10 of the molar value.

- COMPOUND: "CC(C)CN(C[C@@H](O)[C@H](Cc1ccccc1)NC(=O)O[C@H]1CO[C@H]2OCC[C@H]21)S(=O)(=O)c1ccc2c(c1)C(=CNC1CCC1)C(=O)N2 (mixture of isomers)"
  pIC50: 7.52
- COMPOUND: "CC(N)=C1C(=O)Nc2ccc(S(=O)(=O)N(CC(C)C)C[C@@H](O)[C@H](Cc3ccccc3)NC(=O)O[C@H]3CO[C@H]4OCC[C@H]43)cc21 (mixture of isomers)"
  pIC50: 7.15
- COMPOUND: "CC(C)CN(C[C@@H](O)[C@H](Cc1ccccc1)NC(=O)O[C@H]1CO[C@H]2OCC[C@H]21)S(=O)(=O)c1ccc2c(c1)C(=CNCCNc1ccccc1)C(=O)N2 (mixture of isomers)"
  pIC50: 6.80
- COMPOUND: "CC(C)CN(C[C@@H](O)[C@H](Cc1ccccc1)NC(=O)O[C@H]1CO[C@H]2OCC[C@H]21)S(=O)(=O)c1ccc(N)cc1"
  pIC50: 7.80
- COMPOUND: "CC(C)CN(C[C@@H](O)[C@H](Cc1ccccc1)NC(=O)O[C@H]1CO[C@H]2OCC[C@H]21)S(=O)(=O)c1ccc2c(c1)C(=CNC(C)C)C(=O)N2 (mixture of isomers)"
  pIC50: 7.52
- COMPOUND: "CC(C)CN(C[C@@H](O)[C@H](Cc1ccccc1)NC(=O)O[C@H]1CO[C@H]2OCC[C@H]21)S(=O)(=O)c1ccc2c(c1)C(=CNCc1ccncc1)C(=O)N2 (mixture of isomers)"
  pIC50: 6.57
